Sequence of the target: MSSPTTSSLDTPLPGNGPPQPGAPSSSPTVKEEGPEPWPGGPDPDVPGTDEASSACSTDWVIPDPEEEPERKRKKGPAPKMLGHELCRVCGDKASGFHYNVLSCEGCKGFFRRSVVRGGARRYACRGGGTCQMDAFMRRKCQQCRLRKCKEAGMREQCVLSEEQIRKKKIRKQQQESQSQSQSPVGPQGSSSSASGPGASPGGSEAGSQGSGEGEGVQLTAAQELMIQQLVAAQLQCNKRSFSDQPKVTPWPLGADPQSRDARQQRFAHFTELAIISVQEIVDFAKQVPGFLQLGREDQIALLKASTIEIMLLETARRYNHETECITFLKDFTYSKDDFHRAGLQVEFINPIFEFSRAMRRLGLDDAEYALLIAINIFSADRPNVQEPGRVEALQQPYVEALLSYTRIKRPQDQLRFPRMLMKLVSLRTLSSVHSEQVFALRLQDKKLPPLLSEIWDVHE
Please go through the items and note down their IC50.
One number for each entry, in nM.

[[record]]
smiles_code = "CC(C)c1nc2c(C#N)cccn2c1-c1cccc(Oc2cccc(S(=O)(=O)C(C)C)c2)c1"
unit_name = "nM"
measured_result = 24


I have 8 compounds here; please give me IC50 for each one.
1. CCS(=O)(=O)c1cccc(Oc2cccc(-c3c(C(C)(C)C)nc4c(C#N)cccn34)c2)c1
2. CC(C)c1nc2c(C(F)(F)F)cccn2c1-c1cccc(OCc2ccc(S(C)(=O)=O)cc2)c1
3. CCc1nc2c(C(F)(F)F)cccn2c1-c1cccc(Oc2cccc(S(=O)(=O)CCCO)c2)c1
4. CC(C)c1nc2c(C(F)(F)F)cccn2c1-c1cccc(Oc2cccc(S(=O)(=O)C(C)C)c2)c1
5. CCc1nc2c(C#N)cccn2c1-c1cccc(OCc2cccc(S(C)(=O)=O)c2)c1
6. Cc1nc2c(C(F)(F)F)cccn2c1-c1cccc(Oc2cc(F)cc(S(C)(=O)=O)c2)c1
7. CS(=O)(=O)c1cccc(Oc2cccc(-c3c(Cl)nc4c(C(F)(F)F)cccn34)c2)c1
8. CC(C)c1nc2c(C(F)(F)F)cccn2c1-c1ccc(Oc2cccc(S(C)(=O)=O)c2)cc1

Solution:
1. 23.7
2. 4190
3. 44
4. 8
5. 3060
6. 119
7. 83
8. 179

* * *

molecular target: human LXRα (Homo sapiens)
Kindly state pIC50 for each of the entries shown.
One number for each entry, as −log10 of the molar value.

[[record]]
smiles_code = "CC(C)c1nc2c(C(F)(F)F)cccn2c1-c1cccc(Oc2cccc(S(=O)(=O)CCCO)c2)c1"
measured_result = 6.34

[[record]]
smiles_code = "CCCS(=O)(=O)c1cccc(Oc2cccc(-c3c(C)nc4c(C(F)(F)F)cccn34)c2)c1"
measured_result = 5.83

[[record]]
smiles_code = "CCc1nc2c(C(F)(F)F)cccn2c1-c1ccc(-c2cccc(S(C)(=O)=O)c2)cc1"
measured_result = 5.58

[[record]]
smiles_code = "CC(C)c1nc2c(C#N)cccn2c1-c1cc(Oc2cccc(S(C)(=O)=O)c2)ccc1Cl"
measured_result = 6.51


Please give pIC50, item by item, for the list that follows.
1. CCc1nc2c(Cl)cccn2c1-c1cccc(Oc2cccc(S(=O)(=O)NC)c2)c1
2. CC(C)c1nc2c(C(F)(F)F)cccn2c1-c1cccc(OCc2ccc(S(C)(=O)=O)cc2)c1

Solution:
1: 6.39; 2: 4.44

Required: pIC50, one value per compound below.
1. CCc1nc2c(C(F)(F)F)cccn2c1-c1cccc(Oc2cccc(S(=O)(=O)C(C)C)c2)c1
2. CS(=O)(=O)c1cccc(Oc2cccc(-c3c(Cn4ccnc4)nc4c(C(F)(F)F)cccn34)c2)c1
3. CS(=O)(=O)c1cccc(Oc2cccc(-c3c(Cl)nc4c(C(F)(F)F)cccn34)c2)c1
4. CC(C)(C)c1nc2c(C#N)cccn2c1-c1cccc(Oc2cccc(S(=O)(=O)CCCO)c2)c1
5. CC(C)c1nc2c(C#N)cccn2c1-c1cc(Oc2cccc(S(=O)(=O)C(C)C)c2)ccc1Cl
6. CCc1nc2c(C(F)(F)F)cccn2c1-c1cccc(Oc2cc(F)cc(S(C)(=O)=O)c2)c1
7. CCS(=O)(=O)c1cccc(Oc2cccc(-c3c(C(C)(C)C)nc4c(C(F)(F)F)cccn34)c2)c1

Solution:
[6.55, 6.43, 5.56, 5.62, 6.56, 6.20, 6.87]

Record pIC50 per entry; entries follow.
1. CCS(=O)(=O)c1cccc(Oc2cccc(-c3c(C(C)(C)C)nc4c(C#N)cccn34)c2)c1
2. CC(C)c1nc2c(Cl)cccn2c1-c1cccc(OCc2cccc(S(C)(=O)=O)c2)c1

Solution:
1. 6.13
2. 5.73

Give one value of pIC50 per listed compound.
1. CCS(=O)(=O)c1cccc(Oc2ccc(Cl)c(-c3c(C(C)C)nc4c(C#N)cccn34)c2)c1
2. CC(C)c1nc2c(C#N)cccn2c1-c1cccc(Oc2cccc(S(=O)(=O)C(C)C)c2)c1
3. CCc1nc2c(Cl)cccn2c1-c1cccc(Oc2cccc(S(C)(=O)=O)c2)c1
4. CC(C)S(=O)(=O)c1cccc(Oc2cccc(-c3c(Cc4ccccc4)nc4c(C(F)(F)F)cccn34)c2)c1

Solution:
1. 6.66
2. 5.90
3. 6.19
4. 7.80

Problem: Which pIC50 value belongs to `CCc1nc2c(Cl)cccn2c1-c1cccc(Oc2cccc(S(=O)(=O)N(Cc3ccc(OC)cc3)Cc3ccc(OC)cc3)c2)c1` ?
Solution: 6.04

* * *

So I've got a bunch of molecules here, and I need their pIC50 values.
Biological target: human LXRα (Homo sapiens)
Sequence (Q13133 1-447): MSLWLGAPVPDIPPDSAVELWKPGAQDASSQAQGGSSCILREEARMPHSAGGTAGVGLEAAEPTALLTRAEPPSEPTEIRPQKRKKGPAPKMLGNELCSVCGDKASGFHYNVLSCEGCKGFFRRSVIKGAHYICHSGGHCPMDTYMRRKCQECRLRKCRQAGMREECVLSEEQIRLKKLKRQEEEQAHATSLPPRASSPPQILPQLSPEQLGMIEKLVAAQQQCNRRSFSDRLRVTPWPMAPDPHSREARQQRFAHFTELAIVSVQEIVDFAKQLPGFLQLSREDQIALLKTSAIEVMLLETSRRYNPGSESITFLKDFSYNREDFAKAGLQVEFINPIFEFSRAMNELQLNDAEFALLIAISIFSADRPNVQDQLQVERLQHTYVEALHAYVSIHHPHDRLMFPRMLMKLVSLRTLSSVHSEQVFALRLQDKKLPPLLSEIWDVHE
Numbers only, as −log10 of the molar value.

Sample records with pIC50:
[[record]]
smiles_code = "CCS(=O)(=O)c1cccc(Oc2cccc(-c3c(Cc4ccccc4)nc4c(C(F)(F)F)cccn34)c2)c1"
readout_type = "pIC50"
measured_result = 8.00

[[record]]
smiles_code = "Cc1nc2c(C(F)(F)F)cccn2c1-c1cccc(Oc2cc(F)cc(S(C)(=O)=O)c2)c1"
readout_type = "pIC50"
measured_result = 5.73

[[record]]
smiles_code = "CCc1nc2c(C#N)cccn2c1-c1cccc(Oc2cccc(S(=O)(=O)C(C)C)c2)c1"
readout_type = "pIC50"
measured_result = 5.61

[[record]]
smiles_code = "CCCCOCc1nc2c(C(F)(F)F)cccn2c1-c1ccc(Oc2cccc(S(C)(=O)=O)c2)cc1"
readout_type = "pIC50"
measured_result = 6.37


Problem: Fill in the blank: the reported pIC50 of `COc1ccccc1-c1nc2c(C(F)(F)F)cccn2c1-c1ccc(Oc2cccc(S(C)(=O)=O)c2)cc1` is ____.
Solution: 6.54

* * *

Target sequence: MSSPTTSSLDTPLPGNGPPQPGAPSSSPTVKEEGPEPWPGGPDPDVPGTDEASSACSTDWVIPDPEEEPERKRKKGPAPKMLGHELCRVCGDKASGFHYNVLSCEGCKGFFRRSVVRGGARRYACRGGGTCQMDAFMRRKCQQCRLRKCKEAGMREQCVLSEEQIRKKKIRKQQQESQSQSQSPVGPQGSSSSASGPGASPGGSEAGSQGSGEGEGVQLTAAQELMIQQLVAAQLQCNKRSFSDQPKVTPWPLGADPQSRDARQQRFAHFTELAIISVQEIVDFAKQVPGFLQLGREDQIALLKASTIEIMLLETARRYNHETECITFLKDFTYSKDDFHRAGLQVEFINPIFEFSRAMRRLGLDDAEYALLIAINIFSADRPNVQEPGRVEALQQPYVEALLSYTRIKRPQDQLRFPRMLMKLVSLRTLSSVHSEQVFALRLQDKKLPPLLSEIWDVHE
Field: pIC50. Provide a value for each of the molecules that follow.
One number for each entry, as −log10 of the molar value.

[[record]]
smiles_code = "CCc1nc2c(C#N)cccn2c1-c1cccc(Oc2cccc(S(=O)(=O)N(C)Cc3ccc(OC)cc3)c2)c1"
measured_result = 7.81

[[record]]
smiles_code = "CCc1nc2c(C(F)(F)F)cccn2c1-c1cccc(Oc2cccc(S(=O)(=O)C(C)C)c2)c1"
measured_result = 7.85

[[record]]
smiles_code = "CCc1nc2c(Cl)cccn2c1-c1cccc(Oc2cccc(S(C)(=O)=O)c2)c1"
measured_result = 7.76

[[record]]
smiles_code = "CCc1nc2c(Cl)cccn2c1-c1cccc(Oc2cccc(S(N)(=O)=O)c2)c1"
measured_result = 6.82


Record pIC50 for all entries; do not skip any.
1. CCS(=O)(=O)c1cccc(Oc2cccc(-c3c(C(C)C)nc4c(C#N)cccn34)c2)c1
2. CCc1nc2c(C#N)cccn2c1-c1cccc(Oc2cccc(S(N)(=O)=O)c2)c1
3. CCc1nc2c(Cl)cccn2c1-c1cccc(Oc2cccc(S(=O)(=O)C(C)C)c2)c1
4. CCc1nc2c(C(F)(F)F)cccn2c1-c1ccc(-c2cccc(S(C)(=O)=O)c2)cc1
5. CCc1nc2c(Cl)cccn2c1-c1cccc(Oc2cccc(S(=O)(=O)CC)c2)c1
6. CC(C)c1nc2c(Cl)cccn2c1-c1cccc(OCc2ccc(S(C)(=O)=O)cc2)c1

Solution:
1. 7.44
2. 6.03
3. 7.77
4. 6.87
5. 7.82
6. 5.07

Parameters: items (list). Returns: pIC50 for each item.
1. CS(=O)(=O)c1cccc(Oc2ccc(-c3c(-c4ccsc4)nc4c(C(F)(F)F)cccn34)cc2)c1
2. CCc1nc2c(C(F)(F)F)cccn2c1-c1cccc(Oc2cccc(S(=O)(=O)CCCC#N)c2)c1

Solution:
1: 6.95; 2: 7.16
